Tested on: E. coli ATCC 25922
testSummary: MIC by micro-liquid dilution method (CLSI)
Format: cell-based
measurementContext: Escherichia coli; E. coli ATCC25922; read-out: MIC
propertyLabel: MIC
Enter the number, and then the unit.

Lookup: Param item = CC1(C)[C@H](NC(=O)/C(=N\OCCOc2ccc3c(c2)CCN(C(=N)N2CCNCC2)C3)c2csc(N)n2)C(=O)N1OS(=O)(=O)O ; retrieve measured MIC.
Found: 0.25 mg/L

List the reported MIC of each compound below.
1. CC1(C)[C@H](NC(=O)/C(=N\OCCOc2ccc3c(c2)CCN(CCCNC(=N)N)C3)c2csc(N)n2)C(=O)N1OS(=O)(=O)O
2. CC1(C)[C@H](NC(=O)/C(=N\OCCOc2ccc3c(c2)CCN(C(=N)N)C3)c2csc(N)n2)C(=O)N1OS(=O)(=O)O
3. C[C@H]1[C@H](NC(=O)/C(=N\OC(C)(C)C(=O)O)c2csc(N)n2)C(=O)N1S(=O)(=O)O [Aztreonam, reference compound]
4. CC1(C)[C@H](NC(=O)/C(=N\OCCOc2ccc3c(c2)CCN(CCCN)C3)c2csc(N)n2)C(=O)N1OS(=O)(=O)O
5. CC1(C)[C@H](NC(=O)/C(=N\OCCOc2ccc3c(c2)CN(C(=N)N)CC3)c2csc(N)n2)C(=O)N1OS(=O)(=O)O

Found:
["0.5 mg/L", "0.25 mg/L", "0.25 mg/L", "0.5 mg/L", "1 mg/L"]

Values were extracted from patent US11459323B2.
